# assay_system: T1, human CCR8 (human, UniProt P51685 1-355)
# T1 construct: Native CCR8 on human PBMC (CCR8+ CD3+ or CCR8+ CD4+ lymphocytes); also called chemokine (C-C motif) receptor 8
# T1 sequence (P51685 whole entry): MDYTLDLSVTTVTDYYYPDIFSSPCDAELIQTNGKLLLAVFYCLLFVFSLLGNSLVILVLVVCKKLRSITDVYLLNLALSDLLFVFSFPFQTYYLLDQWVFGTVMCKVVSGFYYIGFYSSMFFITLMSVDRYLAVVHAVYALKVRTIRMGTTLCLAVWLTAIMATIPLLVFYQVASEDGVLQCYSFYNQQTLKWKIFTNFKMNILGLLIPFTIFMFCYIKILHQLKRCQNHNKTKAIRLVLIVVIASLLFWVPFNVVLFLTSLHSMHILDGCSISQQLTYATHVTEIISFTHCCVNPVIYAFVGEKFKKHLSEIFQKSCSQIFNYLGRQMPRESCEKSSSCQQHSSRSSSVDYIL
# experimental_protocol: flow blocking, PBMC CCR8+CD3+; competitor PE-AB6
Parameter: MFI. Scope: all listed entries.
Field format: numeric only.

// query Sample AB11 (antibody, V domains shown, Hybridoma monoclonal; also called antibody 11; clone 11) VH: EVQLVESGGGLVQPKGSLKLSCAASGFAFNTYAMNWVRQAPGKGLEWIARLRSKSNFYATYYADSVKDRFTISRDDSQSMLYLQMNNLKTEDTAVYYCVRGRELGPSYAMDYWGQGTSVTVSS VL: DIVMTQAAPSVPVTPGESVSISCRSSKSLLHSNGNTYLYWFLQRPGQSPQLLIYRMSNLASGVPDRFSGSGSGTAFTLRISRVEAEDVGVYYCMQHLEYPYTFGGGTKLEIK — what was its MFI?
// result 1010

// query Further, for AB7 (antibody, V domains shown, Hybridoma monoclonal; also called antibody 7; clone 7) VH: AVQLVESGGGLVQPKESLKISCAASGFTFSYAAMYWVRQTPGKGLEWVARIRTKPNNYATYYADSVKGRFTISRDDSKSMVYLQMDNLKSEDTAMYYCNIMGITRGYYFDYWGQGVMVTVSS VL: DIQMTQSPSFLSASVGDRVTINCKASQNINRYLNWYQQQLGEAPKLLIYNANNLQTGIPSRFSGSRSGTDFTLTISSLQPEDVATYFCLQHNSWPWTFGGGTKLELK ?
// result 1140
